Kindly supply the reported Percent Effect values for the records listed here.
# tested_target: Tyrosyl-tRNA synthetase, putative (Trypanosoma cruzi (strain CL Brener))
# assay_info: Trypanosoma cruzi tyrosyl tRNA synthetase (TcYRS) _High Tyrosine SOP
# Type: functional
# Set-up: scale not given: in the data most compounds retested in dose-response had high values
# particulars: 30 µM

Please review the entries below; each comes with its answer.
- molecule: "O=C(Cc1ccc2c(c1)OCCO2)N1CCCC(n2ccnc2)C1 (stereo unspecified)"
  endpoint_label: "Percent Effect"
  endpoint_result: "1.91%"
- molecule: "CC(C)OCC(=O)N1CCCN(Cc2ccc(C#N)cc2)CC1"
  endpoint_label: "Percent Effect"
  endpoint_result: "8.33%"

Could you report Percent Effect for every entry in the following list?
1. Cc1cccnc1NC(=O)NC(C)Cn1cccn1 (stereo unspecified)
2. CC(C)N1CCC(NCc2cccnc2N(C)C)CC1
3. Cc1nccn1C1CCCN(C(=O)c2cc3ccccc3[nH]2)C1 (stereo unspecified)
4. COc1cc(/C=C/c2ncc(C(=O)O)s2)cc(Cl)c1O

["3.88%", "-0.546%", "-2.46%", "4.17%"]
